# assay_target: T1, human 5T4-His protein (human, UniProt Q13641 32-355)
# T1 construct: also called recombinant 5T4 protein (human 5T4-his tag); human 5T4 protein; not shown: His tag
# T1 sequence (looked up): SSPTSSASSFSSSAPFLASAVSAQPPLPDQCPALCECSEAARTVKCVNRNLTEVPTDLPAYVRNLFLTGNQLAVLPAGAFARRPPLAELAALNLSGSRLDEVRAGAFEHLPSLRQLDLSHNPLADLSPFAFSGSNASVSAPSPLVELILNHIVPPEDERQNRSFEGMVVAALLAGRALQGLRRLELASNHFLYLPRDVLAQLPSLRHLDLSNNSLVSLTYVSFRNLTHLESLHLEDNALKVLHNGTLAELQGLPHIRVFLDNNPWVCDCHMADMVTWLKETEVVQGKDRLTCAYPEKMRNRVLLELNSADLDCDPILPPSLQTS
# assay_method_text: SPR Biacore, Protein A capture
# Method: The binding of the 286B4 humanized antibodies to recombinant 5T4 protein (human 5T4-his tag) was tested with Biacore using a capture method. The mAbs were captured using Protein A chip. A serial dilution of human 5T4-his tag protein was injected over captured antibody for 3 mins at a flow rate of 30 μl/min. The antigen was allowed to dissociate for 280-800 s. All the experiments were carried out on a Biacore T200. Data analysis was carried out using the Biacore T200 evaluation software.
assay_readout: koff (s⁻¹)
The answer is to be given in s⁻¹; state only the numeric part.

binder	recorded_result
Hu286B4-15 (antibody, V domains shown, humanized) VH: EVQLQESGPGLVKPSDTLSLTCAVSGYSISNNYYWNWIRQPPGKGLEWMGYITYDGSNNYNPSLKNRITVSRDTSKNQFSLKLSSVTAVDTAVYYCARGGGQLRFDYWGQGTTVTVSS VL: SIVMTQSPSSLSASVGDRVTITCKASQSVSNEVTWYQQKPGKSPKMLIYYASNRYTGVPDRFSGSGYGTDFTFTISSLQPEDIATYFCQQDYSSPWTFGGGTKVEIK	0.000114
Hu286B4-18 (antibody, V domains shown, humanized) VH: EVQLQESGPGLVKPSDTLSLTCAVSGYSITNNYYWNWIRQPPGKGLEWMGYITYDGSNNYNPSLKNRITVSRDTSKNQFSLKLSSVTAVDTAVYYCTRGGGQLRFDYWGQGTTVTVSS VL: DIQMTQSPSSLSASVGDRVTITCKASQSVSNEVTWYQQKPGKAPKMLIYYASNRYTGVPDRFSGSGYGTDFTFTISSLQPEDIATYYCQQDYSSPWTFGGGTKVEIK	0.000133

Please turn your attention to the following entry.
response.value for Hu286B4-10 (antibody, V domains shown, humanized) VH: EVQLQESGPGLVKPSDTLSLTCAVSGYSISNNYYWNWIRQPPGKGLEWIGYITYDGSNNYNPSLKNRITMSRDTSKNQFSLKLSSVTAVDTAVYYCARGGGQLRFDYWGQGTTVTVSS VL: SIVMTQSPSSLSASVGDRVTITCKASQSVSNEVTWYQQKPGKSPKMLIYYASNRYTGVPDRFSGSGYGTDFTFTISSLQPEDIATYFCQQDYSSPWTFGGGTKVEIK (field: koff) = 0.000204
